Field: EMAX (% relative to control). Provide a value for each of the binders that follow.
tgt: T1, native human MET on living human cells (human, UniProt P08581 25-1390)
T1 construct: whole, on cells; also called Human cells (A549); HPAF-II
assay_explanation: flow cytometry, A549 cells
Could you give me the number in %? Just the number is fine.

Lookup: EMAX (% relative to control) for chimeric llama-human IgG1 mAb 71G12 (antibody, V domains shown) VH: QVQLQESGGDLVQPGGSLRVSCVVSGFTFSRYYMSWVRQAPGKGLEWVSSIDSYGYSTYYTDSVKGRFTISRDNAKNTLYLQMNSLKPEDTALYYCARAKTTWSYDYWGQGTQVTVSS VL: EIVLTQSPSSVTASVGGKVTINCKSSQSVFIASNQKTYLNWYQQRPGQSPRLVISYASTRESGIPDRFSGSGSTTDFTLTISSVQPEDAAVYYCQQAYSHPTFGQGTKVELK ?
Found: 110

Lookup: # repeat for chimeric llama-human IgG1 mAb 74C8 (antibody, V domains shown) VH: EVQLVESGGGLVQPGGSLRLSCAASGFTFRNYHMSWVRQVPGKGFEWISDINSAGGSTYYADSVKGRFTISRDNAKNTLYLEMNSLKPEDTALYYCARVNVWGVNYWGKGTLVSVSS VL: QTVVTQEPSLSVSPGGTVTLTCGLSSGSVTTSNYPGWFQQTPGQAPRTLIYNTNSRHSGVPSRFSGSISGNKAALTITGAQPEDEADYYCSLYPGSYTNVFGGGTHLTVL
Found: 85.7
